Exercise: state measured ratio to parent for each of the variants provided.
B1: Myc-MEK [Drosophila] / V5-KSR [Drosophila] (parent complex)
chain 1: MSKNKLNLVLPPVNTEATVAAATVAPTPPFKTPSGTDTHSLLGKPKTSIDALTETLEGLDMGDTERKRIKMFLSQKEKIGELSDEDLEKLGELGSGNGGVVMKVRHTHTHLIMARKLIHLEVKPAIKKQILRELKVLHECNFPHIVGFYGAFYSDGEISICMEYMDGGSLDLILKRAGRIPESILGRITLAVLKGLSYLRDNHAIIHRDVKPSNILVNSSGEIKICDFGVSGQLIDSMANSFVGTRSYMSPERLQGTHYSVQSDIWSLGLSLVEMAIGMYPIPPPNTATLESIFADNAEESGQPTDEPRAMAIFELLDYIVNEPPPKLEHKIFSTEFKDFVDICLKKQPDERADLKTLLSHPWIRKAELEEVDISGWVCKTMDLPPSTPKRNTSPN
chain 2: MSSNNNAPASAPDTGSTNANDPISGSLSVDSNLVIIQDMIDLSANHLEGLRTQCAISSTLTQQEIRCLESKLVRYFSELLLAKMRLNERIPANGLVPHTTGNELRQWLRVVGLSQGTLTACLARLTTLEQSLRLSDEEIRQLLADSPSQREEEELRRLTRAMQNLRKCMESLESGTAASNNDPEQWHWDSWDRPTHIHRGSVGNIGLGNNSTASPRTHHRQHGVKGKNSALANSTNFKSGRQSPSATEELNSTQGSQLTLTLTPSPPNSPFTPSSGLSSSLNGTPQRSRGTPPPARKHQTLLSQSHVQVDGEQLARNRLPTDPSPDSHSSTSSDIFVDPNTNASSGGSSSNVLMVPCSPGVGHVGMGHAIKHRFTKALGFMATCTLCQKQVFHRWMKCTDCKYICHKSCAPHVPPSCGLPREYVDEFRHIKEQGGYASLPHVHGAAKGSPLVKKSTLGKPLHQQHGDSSSPSSSCTSSTPSSPALFQQRERELDQAGSSSSANLLPTPSLGKHQPSQFNFPNVTVTSSGGSGGVSLISNEPVPEQFPTAPATANGGLDSLVSSSNGHMSSLIGSQTSNASTAATLTGSLVNSTTTTSTCSFFPRKLSTAGVDKRTPFTSEYTDTHKSNDSDKTVSLSGSASTDSDRTPVRVDSTEDGDSGQWRQNSISLKEWDIPYGDLLLLERIGQGRFGTVHRALWHGDVAVKLLNEDYLQDEHMLETFRSEVANFKNTRHENLVLFMGACMNPPYLAIVTSLCKGNTLYTYIHQRREKFAMNRTLLIAQQIAQGMGYLHAREIIHKDLRTKNIFIENGKVIITDFGLFSSTKLLYCDMGLGVPHNWLCYLAPELIRALQPEKPRGECLEFTPYSDVYSFGTVWYELICGEFTFKDQPAESIIWQVGRGMKQSLANLQSGRDVKDLLMLCWTYEKEHRPQFARLLSLLEHLPKKRLARSPSHPVNLSRSAESVF

- Variants of: B1
- protocol: anti-V5 immunoprecipitation, immunoblot quantification; S2 cells; V5-KSR and Myc-MEK co-expressed; anti-MEK blot; parent: 1
// no unit, no text: just the number

Item under review: chain 2 E926R . Reported ratio to parent?
1.51

# ratio to parent lookup, item chain 2 Y925D
1.24

Can you share its ratio to parent? I mean this variant: chain 2 M902D
0.9

Quick check: ratio to parent of chain 2 K903D ?
0.46

Which ratio to parent value belongs to chain 2 W896R ?
0.15
